# experimental.system: T1, human TREM2 on BWZ cells (human, UniProt Q9NZC2 19-230)
# T1 construct: whole, on cells; not tied to the cell line; also called BWZ Human TREM2
# T1 sequence (looked up): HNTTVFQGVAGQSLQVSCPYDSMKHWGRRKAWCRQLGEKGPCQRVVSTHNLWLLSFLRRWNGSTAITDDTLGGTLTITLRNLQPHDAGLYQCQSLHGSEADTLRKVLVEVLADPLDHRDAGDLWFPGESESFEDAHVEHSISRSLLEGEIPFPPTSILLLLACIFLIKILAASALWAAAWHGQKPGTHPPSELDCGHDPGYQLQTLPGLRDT
# protocol: FACS, BWZ human TREM2
Please go through the items and note down their FOB Fold Over Background.

## Task What does the record list as FOB Fold Over Background for T1-30 (antibody, IgG1, V domains shown, huIgG1; also called TI-30) VH: QLQLQESGPGLVKPSETLSLTCTVSGGSISSSSYYWGWIRQPPGKGLEWIGSIYYSGSTYYNPSLKSRVTISVDTSKNQFSLKLSSVTAADTAVYYCARGRKAAAGIDEAEYFQHWGQGTLVTVSS VL: DIQMTQSPSSVSASVGDRVTITCRASQGISSWLAWYQQKPGKAPKLLIYAASSLQSGVPSRFSGSGSGTDFTLTISSLQPEDFATYYCQQVISFPTFGGGTKVEIK ?
## Result 0.5 fold

## Task Repeat with T1-23 (antibody, IgG1, V domains shown, huIgG1; also called TI-23; ADI-19090) VH: EVQLVESGGGLVQPGRSLRLSCAASGFTFDDYAMHWVRQAPGKGLEWVSGITWNSGSIGYADSVKGRFTISRDNAKNSLYLQMNSLRAEDTALYYCAKGPRLLSALDVWGQGTMVTVSS VL: DIQMTQSPSTLSASVGDRVTITCRASQSIGSWLAWYQQKPGKAPKLLIYKASSLESGVPSRFSGSGSGTEFTLTISSLQPDDFATYYCQQHQSFSPTFGGGTKVEIK
## Result 1 fold

## Task Repeat with T1-27 (antibody, IgG1, V domains shown, huIgG1; also called TI-27) VH: QVQLQESGPGLVKPSQTLSLTCTVSGGSISSGGYYWSWIRQHPGKGLEWIGYIYYSGSTYYNPSLKSRVTISVDTSKNQFSLKLSSVTAADTAVYYCARDSSIAGRATLSFDYWGQGTLVTVSS VL: DIQMTQSPSSLSASVGDRVTITCRASQSISSYLNWYQQKPGKAPKLLIYAASSLQSGVPSRFSGSGSGTDFTLTISSLQPEDFATYYCQQSFYDPITFGGGTKVEIK
## Result 0.8 fold
